Where do the numbers come from? From PubChem BioAssay (NCI).

Recorded measurements of growth, one per entry
- Test system: M14 melanoma
- TEST_DESCRIPTION: NCI-60 one-dose screen, 48 h (100 = growth as untreated, 0 = no growth, -100 = all killed)
- MEASUREMENT_PARAMETERS: 10 µM unless noted
This is part of a sample that, as a whole, favours compounds with a hit. Of some 83,000 tested, about 20% had one in any assay. The source made the active and inactive calls. Rule for the calls: active = growth percent below 10; inactive = the rest.
PROPERTY_MEASURED: growth

INSERT INTO measurements (line_notation, property_measured, reported_value) VALUES
  ('COc1ccc(-c2cnnc3c(-c4cccc(C(F)(F)F)c4)cnn23)cc1', 'growth', '78.7% (inactive)'),
  ('Nc1c(C(=O)Nc2cccc3ccncc23)sc2nc3c(cc12)C(=O)CCC3', 'growth', '26.1% (inactive)'),
  ('CCCCCCOc1ccc(C(=N)N(CCCC)CCCC)c2ccccc12', 'growth', '-96.1% (active)'),
  ('CC(C)(C)CC(C)(C)Nc1c(-c2ccc(C(F)(F)F)cc2)nc2cnccn12', 'growth', '-54.1% (active)'),
  ('CNC(=O)Nc1ccc(-c2nc(N3CCOCC3)nc3c2cnn3C2CCOCC2)cc1', 'growth', '-12.1% (active)'),
  ('CC1(C)[C@H](O)CC[C@]2(C)[C@@H]1CC[C@@]13C[C@@H](CC[C@H]12)[C@@](O)(CO)C3', 'growth', '-30.7% (active)'),
  ('COc1cc(C(=O)c2cnc(-c3ccc4cc[nH]c4c3)[nH]2)cc(OC)c1OC', 'growth', '4.97% (active)');
